Experiment: stimulators of nuclear beta-catenin in C2C12, primary screen, imaging, WNT3A-conditioned medium, mouse C2C12, NPC library (AID 1117326)
Details: at 10 µM, stronger effect = higher value
Reported nuclear beta-catenin stimulation values for a set of compounds
Give just the numeric value; % need not be written.

C/C=C/c1ccc(O)c(OC)c1	9.7
O=S(c1cc(Cl)cc(Cl)c1O)c1cc(Cl)cc(Cl)c1O	-0.5

Task: I would be grateful if you could share the reported nuclear beta-catenin stimulation for "COC1=CC(=O)C[C@@H](C)[C@]12Oc1c(Cl)c(OC)cc(OC)c1C2=O" .
Output: 1.9

Task: I would be grateful if you could share the reported nuclear beta-catenin stimulation for "OCCN(CCO)c1nc(N2CCCCC2)c2nc(N(CCO)CCO)nc(N3CCCCC3)c2n1" .
Output: 0.7

Task: I would be grateful if you could share the reported nuclear beta-catenin stimulation for "COc1ccc(S(=O)(=O)N2c3ccc(Cl)cc3[C@@](O)(c3ccccc3Cl)[C@H]2C(=O)N2CCC[C@@H]2C(N)=O)cc1OC" .
Output: 0.6

Task: I would be grateful if you could share the reported nuclear beta-catenin stimulation for "C/C(=N\O)c1ccc(OCC(=O)N2CCCCC2)cc1" .
Output: 0.1

Task: I would be grateful if you could share the reported nuclear beta-catenin stimulation for "COc1cc2c(cc1OC)CN(C(=O)[C@H](C)N[C@@H](CCc1ccccc1)C(=O)O)[C@H](C(=O)O)C2" .
Output: -0.2

----------
Reported viability values for a set of compounds
Experiment: ovarian cancer cell viability with rucaparib, profiling panel, oncology-focused library, rucaparib conditional (AID 1508598)
Conditions: patient-derived ovarian cancer cells, CellTiter-Glo viability, 144 h; at 0.313 µM; OCI-P5x cells; without rucaparib; stronger effect = lower value
Give just the numeric value; % need not be written.

Please review the following examples before continuing.
CC(C)C(=O)Nc1ccc([N+](=O)[O-])c(C(F)(F)F)c1	115
O=c1[nH]cc(F)c(=O)[nH]1	100
NC(=O)c1ccc(-c2nc(-c3ccc4c(c3)OCO4)c(-c3ccccn3)[nH]2)cc1	102
O=C1CCC(N2C(=O)c3ccccc3C2=O)C(=O)N1 (stereo not given)	119

Task: I would be grateful if you could share the reported viability for "S=c1nc[nH]c2nc[nH]c12" .
Output: 86.1

----------
Reported viability decrease values for a set of molecules
Assay: growth inhibition of GSK3B-pretreated HCT116 cells – cell-based, CellTiter-Glo, 0.2 to 20 µM (AID 1117336)
Details: HCT116 viability after GSK3B inhibitor, at 20 µM, stronger effect = higher value
Give just the numeric value; % need not be written.

COc1cc(C(=S)N2CCOCC2)cc(OC)c1OC	-0.85

Task: I would be grateful if you could share the reported viability decrease for "Nc1nc(N)c(-c2ccccc2)s1" .
Output: -1.63

----------
Test system: R275C/Slo1WT/beta2
Experiment: modulators of BK channel variants, profiling panel, selectivity assay, cell-based, U2OS BacMam, thallium flux, beta subunits (AID 1259406);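 also: initial slope of Thallos dye fluorescence rise after thallium is added; log ratio against the mean of 0.3% DMSO vehicle wells on the same plate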
Conditions: at 30 µM
Calls of active or inactive are those of the source.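 How the source made its calls: active means thallium flux through the channel raised or lowered by more than 3 SD from vehicle-only wells, actives on both sides; inactive means the rest.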
In this exercise, the only acceptable responses are active, inactive

These solved cases illustrate the format of a correct answer.
CCOC(=O)C1=C(C)NC(C)=C(C(=O)OC)C1c1cccc([N+](=O)[O-])c1 (stereo unspecified)	inactive
CC(=O)OCC(=O)[C@@]12OC(C)(C)O[C@@H]1C[C@H]1[C@@H]3C[C@H](F)C4=CC(=O)C=C[C@]4(C)[C@@]3(F)[C@@H](O)C[C@@]12C	inactive
CC(C[N+](C)(C)C)OC(N)=O (stereo unspecified)	inactive
CN(C)CCC[C@@]1(c2ccc(F)cc2)OCc2cc(C#N)ccc21	inactive
O=C(O)c1cc(=O)c2c(OCC(O)COc3cccc4oc(C(=O)O)cc(=O)c34)cccc2o1	inactive

Task: What is the recorded call for this compound in the test? CC(COc1ccccc1)NC(C)C(O)c1ccc(O)cc1 (stereo unspecified)
Output: inactive

Task: What is the recorded call for this compound in the test? "O=C(O)c1cccnc1"
Output: inactive

Task: What is the recorded call for this compound in the test? c1ccc(-c2ccc(C(c3ccccc3)n3ccnc3)cc2)cc1 (stereo unspecified)
Output: inactive

Task: What is the recorded call for this compound in the test? "C[C@]12CCC(=O)C=C1CC[C@@H]1[C@@H]2[C@@H](O)C[C@@]2(C)[C@H]1CC[C@]2(O)C(=O)COC(=O)CCC(=O)O"
Output: inactive

Task: What is the recorded call for this compound in the test? "CCC(=O)O[C@]1(C(=O)CCl)[C@@H](C)C[C@H]2[C@@H]3CCC4=CC(=O)C=C[C@]4(C)[C@@]3(F)[C@@H](O)C[C@@]21C"
Output: inactive

Task: What is the recorded call for this compound in the test? "NCC(=O)CCC(=O)O"
Output: active

Task: What is the recorded call for this compound in the test? "CCOC(=O)[C@H](CCc1ccccc1)N[C@H]1CCc2ccccc2N(CC(=O)O)C1=O"
Output: inactive

Task: What is the recorded call for this compound in the test? "NS(=O)(=O)c1cc2c(cc1Cl)NCNS2(=O)=O"
Output: inactive

Task: What is the recorded call for this compound in the test? "CC(C)[N+](C)(CCOC(=O)C1c2ccccc2Oc2ccccc21)C(C)C"
Output: inactive

Task: What is the recorded call for this compound in the test? "c1ccc2[nH]c(-c3cscn3)nc2c1"
Output: inactive

Task: What is the recorded call for this compound in the test? "CCCc1cc(=O)[nH]c(=S)[nH]1"
Output: inactive

----------
Experiment: differential killing of epithelial or mesenchymal cells, primary screen, imaging, PC-3E GFP, TEM4-18 mCherry, co-culture (AID 1345086);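 also: cells exposed to compound for 72 h before imaging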
Conditions: imaging cell counts, measured here: epithelial PC-3E GFP cell survival, at 1 µM
Reported normalised cell number values for a set of compounds
Write no unit; give the number alone.

CCCCCCNC(=O)n1cc(F)c(=O)[nH]c1=O	0.88
C=CCCCCCCCCC(=O)O	1.02

Task: I would be grateful if you could share the reported normalised cell number for "NC(=O)N1c2ccccc2C=Cc2ccccc21" .
Output: 1.19

Task: I would be grateful if you could share the reported normalised cell number for "CC(=O)Nc1nnc(S(N)(=O)=O)s1" .
Output: 0.92

----------
Experiment: survival rescue of mitochondrial mutant cells in low glucose, primary screen, MELAS cybrids, Rieske KO mouse fibroblasts, CellTiter-Glo (AID 1508586);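 also: z relative to plate mean and SD of compound and empty wells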
Details: MELAS cybrid survival, CellTiter-Glo 48 h, stronger effect = higher value
measure: z-score
Write no unit; give the number alone.

CCCNc1cccc(-n2ncc3c(N/N=C/c4ccncc4)ncnc32)c1	1.12

Task: I would be grateful if you could share the reported z-score for "NS(=O)(=O)c1cccc(-c2ccc3c(NC(=O)C4CC4)n[nH]c3c2)c1" .
Output: -0.0262

Task: I would be grateful if you could share the reported z-score for NS(=O)(=O)c1ccc(NC2CC(c3ccc(O)c(F)c3)NN2)cc1 (stereo unspecified) .
Output: -0.752

Task: I would be grateful if you could share the reported z-score for O=C(NC1NNC2CC(c3ccccc3)CCC21)C1CC1 (stereo unspecified) .
Output: -0.677

Task: I would be grateful if you could share the reported z-score for "COc1ccc(-c2ccc3c(NC(=O)C4CC4)n[nH]c3n2)cc1" .
Output: 1.36

Task: I would be grateful if you could share the reported z-score for "CCS(=O)(=O)c1ccc(OC)c(Nc2ncc(-c3ccccc3Cl)o2)c1" .
Output: 1.39

Task: I would be grateful if you could share the reported z-score for "Cc1ccc(NC(=O)c2ccnc(N3CCOCC3)c2)cc1-c1ccc(C(=O)NCC2CC2)cc1" .
Output: -0.365

Task: I would be grateful if you could share the reported z-score for "CCn1c(-c2nonc2N)nc2cncc(C(=O)N3CC[C@H](N)C3)c21" .
Output: -0.752

Task: I would be grateful if you could share the reported z-score for "COc1cc(N2CCN(C(C)C)CC2)ccc1Nc1nc(Nc2ccc(F)cc2C(N)=O)c2cc[nH]c2n1" .
Output: 2.96

Task: I would be grateful if you could share the reported z-score for "CS(=O)(=O)Nc1ccc(-c2cc(-c3ccccc3)cc(C(N)=O)c2N)cc1" .
Output: 0.927

Task: I would be grateful if you could share the reported z-score for "CNC(=O)c1cncc(/C=C/c2c(Cl)cccc2Cl)c1" .
Output: 0.726

Task: I would be grateful if you could share the reported z-score for "COc1cccc(/C=N/Nc2ncnc3c2cnn3-c2cccc(OC)c2)c1" .
Output: 0.209

----------
Tested on: F380Y/beta4
Experiment: modulators of BK channel variants, profiling panel, selectivity assay, cell-based, U2OS BacMam, thallium flux, beta subunits (AID 1259406);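 also: initial slope of Thallos dye fluorescence rise after thallium is added; log ratio against the mean of 0.3% DMSO vehicle wells on the same plate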
Conditions: at 30 µM
Label yes when log fold change Tl+ flux < 0.02; otherwise no.

These solved cases illustrate the format of a correct answer.
c1ccc2[nH]c(-c3cscn3)nc2c1	no
CCCc1nc2c(C)cc(-c3nc4ccccc4n3C)cc2n1Cc1ccc(-c2ccccc2C(=O)O)cc1	yes
C[C@]12CCC(=O)C=C1CC[C@@H]1[C@@H]2[C@@H](O)C[C@@]2(C)[C@H]1CC[C@]2(O)C(=O)CO	yes
Oc1ccc(/C=C/c2cc(O)cc(O)c2)cc1	no

Task: Is 0.02 strictly greater than the compound's reported log fold change Tl+ flux? compound: "C[C@]12CCC(=O)C=C1CC[C@@H]1[C@@H]2C(=O)C[C@@]2(C)[C@H]1CC[C@]2(O)C(=O)CO"
Output: yes

Task: Is 0.02 strictly greater than the compound's reported log fold change Tl+ flux? compound: "NC(=O)N1c2ccccc2C=Cc2ccccc21"
Output: yes

Task: Is 0.02 strictly greater than the compound's reported log fold change Tl+ flux? compound: "CCN(CC)CCNC(=O)c1ccc(N)cc1"
Output: no

Task: Is 0.02 strictly greater than the compound's reported log fold change Tl+ flux? compound: CC(CN1c2ccccc2Sc2ccccc21)N(C)C (centres undefined)
Output: no

Data provenance is PubChem BioAssay.
